# system_tested: T1, biotinylated recombinant human IL-12Rβ2 (produced in-house) (human, UniProt Q99665 24-622, random biotinylated)
# T1 construct: also called hIL-12RB2; hIL12RB2
# T1 sequence: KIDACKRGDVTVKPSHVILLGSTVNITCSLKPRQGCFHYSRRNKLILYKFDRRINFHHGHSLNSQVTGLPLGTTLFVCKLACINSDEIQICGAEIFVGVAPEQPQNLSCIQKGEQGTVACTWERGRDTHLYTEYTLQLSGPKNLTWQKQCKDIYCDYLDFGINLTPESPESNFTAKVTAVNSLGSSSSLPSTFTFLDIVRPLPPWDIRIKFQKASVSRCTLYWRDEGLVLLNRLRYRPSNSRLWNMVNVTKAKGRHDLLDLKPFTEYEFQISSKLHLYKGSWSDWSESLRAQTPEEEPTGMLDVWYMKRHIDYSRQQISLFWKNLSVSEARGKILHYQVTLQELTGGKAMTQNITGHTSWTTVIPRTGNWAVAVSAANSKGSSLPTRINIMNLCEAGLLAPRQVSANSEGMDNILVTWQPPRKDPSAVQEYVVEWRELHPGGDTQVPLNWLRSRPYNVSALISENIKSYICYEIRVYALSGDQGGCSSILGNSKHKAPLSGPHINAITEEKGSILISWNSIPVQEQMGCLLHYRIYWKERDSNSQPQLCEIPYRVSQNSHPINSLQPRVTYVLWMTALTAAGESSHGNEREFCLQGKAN
# protocol_notes: ELISA, P.E. VHH on biotinylated hIL-12RB2, signal ratio to control well
Reported values of ELISA hIL12RB2/control for individual entries

{"binder": "anti-IL-12Rβ2 VHH clone 3CRHM73 (VHH, not shown: small tags and cut ends, tested as periplasmic extract; also called 21060) VHH: QVQLQESGGGLVQAGGSLSLSCAASGSAFRLNFMGWYRQAPGKQRELVAAINSGGTEIYHDSVKGRFTISRDNADSTVWLQMNSLKPDDTAVYYCAADRGISWSKLAGGMDYWGKGTQVTVSS", "ELISA hIL12RB2/control": 6.9}
{"binder": "anti-IL-12Rβ2 VHH clone 3CRHS9 (VHH, not shown: small tags and cut ends, tested as periplasmic extract) VHH: QVQLQESGGGLVQPGGSLRLSCTASGSIVSIYNMDWYRQAPGNEREWVASITSSGDPYYDGSAKGRFTISRDNAKMTVYLQMNSLKPEDTAVYYCKVPTEKGNYWGQGTQVTVSS", "ELISA hIL12RB2/control": 5.08}
{"binder": "anti-IL-12Rβ2 VHH clone 3CRHS128 (VHH, not shown: small tags and cut ends, tested as periplasmic extract; also called SCRHS128) VHH: QVQLQESGGGLVQPGGSLRLSCAASGFTFSTSGMHWFRQAPGKGLEWVSSIGATVDNSYYASSVKGRFTISRDNAKNTLYLLMNSLKSEDTAVYYCSKDPTGSSRGQGTQVTVSS", "ELISA hIL12RB2/control": 3.65}
{"binder": "anti-IL-12Rβ2 VHH clone 3CRHS54 (VHH, not shown: small tags and cut ends, tested as periplasmic extract; also called 3CRHSS4) VHH: QVQLQESGGGLVQPGGSLRLSCTASGSIVSIYNMDWYRQAPGNEREWVASITSSGDPYYDGSAKGRFTISRDNAKMTVYLQMNSLEPEDTAVYFCKVPTEKGNYWGQGTQVTVSS", "ELISA hIL12RB2/control": 7.85}
{"binder": "anti-IL-12Rβ2 VHH clone 3CRHM14 (VHH, not shown: small tags and cut ends, tested as periplasmic extract) VHH: QVQLQESGGGLVQAGGSLRLSCAASGRTFSNYAMAWFRQAPGTEREFVAGLSGSGGDTEFYDDSVKGRFAISRDSAKNTVWLQMNSLKPEDTAVYYCAAATHVVVHYGLVRRRGTYDYWGQGTQVTVSS", "ELISA hIL12RB2/control": 3.11}
{"binder": "anti-IL-12Rβ2 VHH clone 3CRHS163 (VHH, not shown: small tags and cut ends, tested as periplasmic extract) VHH: QVQLQESGGGLVQPGGSLRLSCTASGFAFSTYWMYWIRQSPEKGFEWVSVVNTGGDITYYADSVKGRFTISRDNAKNTLYLQMNSLKPEDTALYYCARDRTTMSYTRTYYRGGQGTQVTVSS", "ELISA hIL12RB2/control": 3.58}
{"binder": "anti-IL-12Rβ2 VHH clone 3CAHM11 (VHH, not shown: small tags and cut ends, tested as periplasmic extract) VHH: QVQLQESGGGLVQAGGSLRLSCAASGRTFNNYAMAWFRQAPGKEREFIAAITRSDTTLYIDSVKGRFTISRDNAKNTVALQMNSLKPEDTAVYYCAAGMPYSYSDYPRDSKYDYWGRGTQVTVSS", "ELISA hIL12RB2/control": 3.04}
{"binder": "anti-IL-12Rβ2 VHH clone 3CAHS41 (VHH, not shown: small tags and cut ends, tested as periplasmic extract) VHH: QVQLQESGGGLVQAGDSLRLSCAASGRTFDTYIVGWFRQAPGKEREFVSALSWSDDTTIRDDSLRGRFTISRDNAKNTVYLLMNSLKPEDTAVYYCAAKAKPPAATWSSYRNREWYDYWGQGTQVTVSS", "ELISA hIL12RB2/control": 8.77}
{"binder": "anti-IL-12Rβ2 VHH clone 2CRH82 (VHH, not shown: small tags and cut ends, tested as periplasmic extract) VHH: QVQLQESGGGLVQAGGSLRLSCAASARTESMYAMAWFRQAPGKEREIVAGIIQSGGTTYISDYMKGRFSIDRGNAENTVYLQMDSLKPEDTAVYSCAAKVSSGTPSDIQISQSRWYDHWGQGTQVTVSS", "ELISA hIL12RB2/control": 16.1}

Recorded values, source patent US20260209362A1.
